# Tested on: UW228-2 cells
# assay_protocol: Neutral red cell viability assay, UW228-2
# Format: cell-based, human
# measurement_setup: Homo sapiens, UW228-2; 24 h treatment, neutral red; read-out: LD50 UW228-2 (MB)
Label Met when IC50 is strictly below 20 µM; otherwise label Not met.

- molecule: "CC(c1ccccc1)N1C2CCC(C2)C1CNS(=O)(=O)c1ccc(-c2ccc(F)cc2)cc1 (centres unmarked) [Compound 10c]"
  group: "Met"

Say whether its IC50 is strictly beneath 20 µM. Entry: CC(c1ccccc1)N1CC(NS(=O)(=O)c2ccc(C(F)(F)F)cc2)C2CCC1C2 (centres unmarked) [Compound 11f]
Not met

Say whether its IC50 is strictly beneath 20 µM. Entry: COc1ccc(-c2ccc(S(=O)(=O)NCC3C4CCC(C4)N3C(C)c3ccccc3)cc2)cc1 (centres unmarked) [Compound 10e]
Not met

Say whether its IC50 is strictly beneath 20 µM. Entry: CC(c1ccccc1)N1C2CCC(C2)C1CNS(=O)(=O)c1ccc(C(F)(F)F)cc1 (centres unmarked) [Compound 10f]
Not met

Say whether its IC50 is strictly beneath 20 µM. Entry: CC(c1ccccc1)N1C2CCC(C2)C1CNS(=O)(=O)c1cc(C(F)(F)F)cc(C(F)(F)F)c1 (centres unmarked) [Compound 10g]
Met

Say whether its IC50 is strictly beneath 20 µM. Entry: CC(c1ccccc1)N1CC(NS(=O)(=O)c2ccc(-c3ccccc3)cc2)C2CCC1C2 (centres unmarked) [Compound 11a]
Met

Say whether its IC50 is strictly beneath 20 µM. Entry: CC(=O)Nc1ccc(S(=O)(=O)N(CCN(CC2C3CCC(C3)N2C(C)c2ccccc2)S(=O)(=O)c2ccc(NC(C)=O)cc2)CC2C3CCC(C3)N2C(C)c2ccccc2)cc1 (centres unmarked) [Compound 12i]
Not met

Say whether its IC50 is strictly beneath 20 µM. Entry: COc1ccc(-c2ccc(S(=O)(=O)NC3CN(C(C)c4ccccc4)C4CCC3C4)cc2)cc1 (centres unmarked) [Compound 11e]
Not met

Say whether its IC50 is strictly beneath 20 µM. Entry: CC(c1ccccc1)N1C2CCC(C2)C1CNS(=O)(=O)c1ccc(-c2ccccc2)cc1 (centres unmarked) [Compound 10a]
Not met

Say whether its IC50 is strictly beneath 20 µM. Entry: CC(c1ccccc1)N1C2CCC(C2)C1CN(CC1C2CCC(C2)N1C(C)c1ccccc1)S(=O)(=O)c1ccc(-c2ccccc2)cc1 (centres unmarked) [Compound 13a]
Not met

----------
Reported LD50 HUVEC is given for each of the following compounds.
# Tested on: HUVEC cells
# assay_protocol: Cell viability assay MTT/CellTiter Blue, HUVEC (Table 2)
# Type: cell-based
# measurement_setup: Table 2, nonmalignant primary cells, 24 h, assay as for D425
Write down the numeric answer in µM and omit the unit.

Below are worked cases with known answers.
- compound: "CC(c1ccccc1)N1C2CCC(C2)C1CNS(=O)(=O)c1ccc(-c2ccc(F)cc2)cc1 (stereo not shown) [Compound 10c]"
  LD50 HUVEC [µM]: 16.77
- compound: "CC(c1ccccc1)N1C2CCC(C2)C1CN(CC1C2CCC(C2)N1C(C)c1ccccc1)S(=O)(=O)c1ccc(-c2ccccc2)cc1 (stereo not shown) [Compound 13a]"
  LD50 HUVEC [µM]: 16
- compound: "CC(c1ccccc1)N1CC(NS(=O)(=O)c2ccc(C(F)(F)F)cc2)C2CCC1C2 (stereo not shown) [Compound 11f]"
  LD50 HUVEC [µM]: 31.52
- compound: "CC(c1ccccc1)N1CC(NS(=O)(=O)c2ccc(-c3ccccc3)cc2)C2CCC1C2 (stereo not shown) [Compound 11a]"
  LD50 HUVEC [µM]: 21.71
- compound: "Cc1ccc(-c2ccc(S(=O)(=O)NCC3C4CCC(C4)N3C(C)c3ccccc3)cc2)cc1 (stereo not shown) [Compound 10b]"
  LD50 HUVEC [µM]: 28.9

Given the entry CC(c1ccccc1)N1C2CCC(C2)C1CNS(=O)(=O)c1ccc(-c2ccccc2)cc1 (stereo not shown) [Compound 10a] , report its measured LD50 HUVEC.
28

Given the entry CC(c1ccccc1)N1C2CCC(C2)C1CNS(=O)(=O)c1cc(C(F)(F)F)cc(C(F)(F)F)c1 (stereo not shown) [Compound 10g] , report its measured LD50 HUVEC.
17.62

----------
# System: U251 cells
# assay_protocol: Neutral red cell viability assay, U251
# Type: cell-based, human
# measurement_setup: Homo sapiens, U-251; 24 h treatment, neutral red; read-out: LD50 U251 (GBM)
Label label 1 when IC50 is strictly below 20 µM; otherwise label label 0.

Look over these answered cases.
- compound: "CC(c1ccccc1)N1C2CCC(C2)C1CN(CC1C2CCC(C2)N1C(C)c1ccccc1)S(=O)(=O)c1ccc(-c2ccccc2)cc1 (stereo not shown) [Compound 13a]"
  group: "label 0"
- compound: "CC(c1ccccc1)N1C2CCC(C2)C1CNS(=O)(=O)c1ccc(C(F)(F)F)cc1 (stereo not shown) [Compound 10f]"
  group: "label 0"
- compound: "CC(c1ccccc1)N1CC(NS(=O)(=O)c2ccc(C(F)(F)F)cc2)C2CCC1C2 (stereo not shown) [Compound 11f]"
  group: "label 0"
- compound: "CC(c1ccccc1)N1C2CCC(C2)C1CNS(=O)(=O)c1ccc(-c2ccc(F)cc2)cc1 (stereo not shown) [Compound 10c]"
  group: "label 0"
- compound: "CC(=O)Nc1ccc(S(=O)(=O)N(CCN(CC2C3CCC(C3)N2C(C)c2ccccc2)S(=O)(=O)c2ccc(NC(C)=O)cc2)CC2C3CCC(C3)N2C(C)c2ccccc2)cc1 (stereo not shown) [Compound 12i]"
  group: "label 1"

Say whether its IC50 is strictly beneath 20 µM. Entry: CC(c1ccccc1)N1C2CCC(C2)C1CNS(=O)(=O)c1cc(C(F)(F)F)cc(C(F)(F)F)c1 (stereo not shown) [Compound 10g]
label 1

Say whether its IC50 is strictly beneath 20 µM. Entry: CC(c1ccccc1)N1CC(NS(=O)(=O)c2cc(C(F)(F)F)cc(C(F)(F)F)c2)C2CCC1C2 (stereo not shown) [Compound 11g]
label 0

----------
# System: U251 cells
# assay_protocol: Neutral red cell viability assay, U251
# Assay type: cell-based, human
# measurement_setup: Homo sapiens, U-251; 24 h treatment, neutral red; read-out: LD50 U251 (GBM)
measurement_label: IC50 (µM)
Write down the numeric answer in µM and omit the unit.

Below are worked cases with known answers.
- compound: "CC(c1ccccc1)N1C2CCC(C2)C1CNS(=O)(=O)c1ccc(-c2ccccc2)cc1 (centres unmarked) [Compound 10a]"
  IC50 / µM: 13.5
- compound: "COc1ccc(-c2ccc(S(=O)(=O)NCC3C4CCC(C4)N3C(C)c3ccccc3)cc2)cc1 (centres unmarked) [Compound 10e]"
  IC50 / µM: 16
- compound: "Cc1ccc(-c2ccc(S(=O)(=O)NCC3C4CCC(C4)N3C(C)c3ccccc3)cc2)cc1 (centres unmarked) [Compound 10b]"
  IC50 / µM: 20.4

Given the entry CC(c1ccccc1)N1CC(NS(=O)(=O)c2ccc(-c3ccccc3)cc2)C2CCC1C2 (centres unmarked) [Compound 11a] , report its measured IC50.
18.8

Given the entry COc1ccc(-c2ccc(S(=O)(=O)NC3CN(C(C)c4ccccc4)C4CCC3C4)cc2)cc1 (centres unmarked) [Compound 11e] , report its measured IC50.
23.7

----------
# Test system: HUVEC cells
# assay_protocol: Neutral red cell viability assay, HUVEC (Table 1)
# Format: cell-based
# measurement_setup: Table 1, nonmalignant primary cells, 24 h
measurement_label: LD50 HUVEC (µM)
Write down the numeric answer in µM and omit the unit.

Given the entry CC(c1ccccc1)N1CC(NS(=O)(=O)c2cc(C(F)(F)F)cc(C(F)(F)F)c2)C2CCC1C2 (stereo not drawn) [Compound 11g] , report its measured LD50 HUVEC.
18.68

Given the entry CC(c1ccccc1)N1C2CCC(C2)C1CNS(=O)(=O)c1ccc(-c2ccc(F)cc2)cc1 (stereo not drawn) [Compound 10c] , report its measured LD50 HUVEC.
13.8

Given the entry COc1ccc(-c2ccc(S(=O)(=O)NC3CN(C(C)c4ccccc4)C4CCC3C4)cc2)cc1 (stereo not drawn) [Compound 11e] , report its measured LD50 HUVEC.
17.58

Given the entry CC(c1ccccc1)N1CC(NS(=O)(=O)c2ccc(C(F)(F)F)cc2)C2CCC1C2 (stereo not drawn) [Compound 11f] , report its measured LD50 HUVEC.
22.28

Given the entry CC(c1ccccc1)N1C2CCC(C2)C1CNS(=O)(=O)c1cc(C(F)(F)F)cc(C(F)(F)F)c1 (stereo not drawn) [Compound 10g] , report its measured LD50 HUVEC.
10.77

Given the entry CC(=O)Nc1ccc(S(=O)(=O)N(CCN(CC2C3CCC(C3)N2C(C)c2ccccc2)S(=O)(=O)c2ccc(NC(C)=O)cc2)CC2C3CCC(C3)N2C(C)c2ccccc2)cc1 (stereo not drawn) [Compound 12i] , report its measured LD50 HUVEC.
3.16

Given the entry COc1ccc(-c2ccc(S(=O)(=O)NCC3C4CCC(C4)N3C(C)c3ccccc3)cc2)cc1 (stereo not drawn) [Compound 10e] , report its measured LD50 HUVEC.
9.58

Given the entry Cc1ccc(-c2ccc(S(=O)(=O)NCC3C4CCC(C4)N3C(C)c3ccccc3)cc2)cc1 (stereo not drawn) [Compound 10b] , report its measured LD50 HUVEC.
12.88

Given the entry CC(c1ccccc1)N1CC(NS(=O)(=O)c2ccc(-c3ccccc3)cc2)C2CCC1C2 (stereo not drawn) [Compound 11a] , report its measured LD50 HUVEC.
13.35
